src = patent US20250145684A1

# Test Target: T1, HLA-B*08:01 (human)
# T1 construct: MHC monomer first loaded with a UV-sensitive peptide that is cleaved by UV light and exchanged for the test peptide
# Assay Text: UV peptide exchange ELISA
Readout Label: peptide exchange yield

Use the examples below as a reference point.
[[record]]
binder = "SIRSSYSRF [SIRSSYSRF (SEQ ID NO: 181)]"
result = "20 to 50%"

[[record]]
binder = "QKPRKKKL [QKPRKKKL (SEQ ID NO: 85)]"
result = "20 to 50%"

[[record]]
binder = "ETIKGHSVRL [ETIKGHSVRL (SEQ ID NO: 217)]"
result = "20 to 50%"

[[record]]
binder = "YVKRKTNVL [YVKRKTNVL (SEQ ID NO: 63)]"
result = "20 to 50%"

[[record]]
binder = "VAAARAVPV [VAAARAVPV (SEQ ID NO: 200)]"
result = "20 to 50%"

[[record]]
binder = "MEFPNKFNTL [MEFPNKFNTL (SEQ ID NO: 206)]"
result = "20 to 50%"


Task: Can you share its peptide exchange yield? I mean this binder: DQRSRATL [DQRSRATL (SEQ ID NO: 134)]
Result: 20 to 50%

Task: Quick one: peptide exchange yield of MEKGLASL [MEKGLASL (SEQ ID NO: 113)] ?
Result: 20 to 50%

Task: For the binder DLSRRDVSL [DLSRRDVSL (SEQ ID NO: 54)] , what peptide exchange yield is on record?
Result: 20 to 50%

Task: Which peptide exchange yield is reported for this binder? DVISKGVSL [DVISKGVSL (SEQ ID NO: 211)]
Result: 20 to 50%

Task: Reported peptide exchange yield for RPAGVFEL [RPAGVFEL (SEQ ID NO: 96)] : what is it?
Result: 20 to 50%

Task: Bench note: what peptide exchange yield did NRQKRFVL [NRQKRFVL (SEQ ID NO: 6)] show?
Result: 20 to 50%

Task: Give the measured peptide exchange yield of KPQSLQLVL [KPQSLQLVL (SEQ ID NO: 242)] .
Result: 20 to 50%
